# studyTarget: hTRPV3 (Homo sapiens (Human), UniProt Q8NET8)
# Sequence (Q8NET8 whole entry): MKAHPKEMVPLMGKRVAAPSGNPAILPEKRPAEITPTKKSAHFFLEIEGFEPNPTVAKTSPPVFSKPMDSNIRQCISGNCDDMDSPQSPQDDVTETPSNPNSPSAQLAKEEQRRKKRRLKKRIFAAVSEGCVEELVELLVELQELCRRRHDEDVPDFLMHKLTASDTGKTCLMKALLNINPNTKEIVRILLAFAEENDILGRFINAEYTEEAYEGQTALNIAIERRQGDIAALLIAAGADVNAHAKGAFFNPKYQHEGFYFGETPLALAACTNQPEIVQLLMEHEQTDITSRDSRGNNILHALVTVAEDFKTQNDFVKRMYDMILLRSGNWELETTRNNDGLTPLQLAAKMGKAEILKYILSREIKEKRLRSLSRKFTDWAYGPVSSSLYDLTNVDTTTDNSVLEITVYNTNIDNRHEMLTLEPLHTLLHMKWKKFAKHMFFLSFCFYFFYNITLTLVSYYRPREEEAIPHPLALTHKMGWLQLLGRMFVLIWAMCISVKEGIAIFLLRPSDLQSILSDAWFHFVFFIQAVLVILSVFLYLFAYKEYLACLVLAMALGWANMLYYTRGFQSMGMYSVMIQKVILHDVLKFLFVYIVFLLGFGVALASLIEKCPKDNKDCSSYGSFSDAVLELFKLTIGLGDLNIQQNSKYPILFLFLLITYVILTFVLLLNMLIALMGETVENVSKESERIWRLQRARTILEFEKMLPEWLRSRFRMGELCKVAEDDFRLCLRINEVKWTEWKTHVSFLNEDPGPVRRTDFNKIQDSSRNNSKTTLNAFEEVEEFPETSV
# testMethodNotes: Whole-cell patch clamp, hTRPV3 Phase 1 / Phase 2 currents
# Assay type: cell-based
# assayContext: Phase 1 current; read-out: hTRPV3 (nM) (Phase 1)
Some compounds, each annotated with its measured log10(IC50).
propertyMeasured: log10(IC50) (log10 of the value in nM)

{"columns": ["compound", "propertyMeasured", "observedResult"],
 "data": [
  ["NC(=O)c1cc(-c2ccccc2)ccc1N1CC[C@H](Nc2ncccc2Cl)C1 [Compound 1-377]", "log10(IC50)", 2.56],
  ["COc1ccccc1-c1ccc(N2CC[C@H](Oc3ccc(F)cn3)C2)c(CO)n1 [Compound 1-209]", "log10(IC50)", 3.54],
  ["O=C(c1ccc(F)cc1)c1ccc(N2CC[C@H](Oc3ncccc3Cl)C2)c(CCO)c1 [Compound 1-315]", "log10(IC50)", 3.10],
  ["COC(c1ccc(F)cc1)c1ccc(N2CC[C@H](Oc3ncccc3Cl)C2)c(CO)c1 (some centres unmarked) [Compound 1-289]", "log10(IC50)", 1.82],
  ["OCc1ccc(-c2ccc(N3CC[C@H](Oc4ccc(C(F)(F)F)cn4)C3)c(CO)c2)cc1 [Compound 1-261]", "log10(IC50)", 2.78],
  ["COC(C)c1ccccc1Oc1ccc(N2CC[C@H](Oc3ccc(C)cn3)C2)c(CCO)c1 (some centres unmarked) [Compound 1-355]", "log10(IC50)", 2.24],
  ["CC(C)c1ccccc1Oc1ccc(N2CC[C@H](Oc3ccc(C#N)cn3)C2)c(CO)c1 [Compound 1-353]", "log10(IC50)", 1.43],
  ["CCc1ccccc1Oc1ccc(N2CC[C@H](Oc3ncccc3Cl)C2)c(CO)c1 [Compound 1-222]", "log10(IC50)", 0.59],
  ["Cc1cccc(C(O)c2ccc(N3CC[C@H](Oc4ncccc4Cl)C3)c(CO)c2)c1 (some centres unmarked) [Compound 1-281]", "log10(IC50)", 3.04],
  ["OCc1cc(-c2ccccc2)ccc1N1CC[C@H](Oc2ccc(C(F)(F)F)nn2)C1 [Compound 1-397]", "log10(IC50)", 3.44],
  ["CC(C)c1ccccc1Oc1ccc(N2CC[C@H](Oc3ccccn3)C2)c(CCO)c1 [Compound 1-317]", "log10(IC50)", 1.32],
  ["OCc1cc(Oc2ccccc2)ccc1N1CC[C@H](Oc2ncccc2Cl)C1 [Compound 1-168]", "log10(IC50)", 1.79],
  ["CCc1ccccc1Oc1ccc(N2CC[C@H](Oc3ncccc3C)C2)c(CO)c1 [Compound 1-268]", "log10(IC50)", 0.45],
  ["Cc1ccc(O[C@H]2CCN(c3ccc(-c4ccccc4)nc3CCO)C2)nc1 [Compound 1-215]", "log10(IC50)", 3.00],
  ["COc1ccccc1Oc1ccc(N2CC[C@H](Oc3ncccc3Cl)C2)c(CCO)c1 [Compound 1-237]", "log10(IC50)", 2.40],
  ["CC(=O)c1cc(F)ccc1Oc1ccc(N2CC[C@H](Oc3ccccn3)C2)c(CO)c1 [Compound 1-343]", "log10(IC50)", 2.30],
  ["CCc1ccccc1Oc1ccc(N2CC[C@H](Oc3ccccn3)C2)c(CO)c1 [Compound 1-275]", "log10(IC50)", 1.39],
  ["OCc1cc(-c2ccccc2)ncc1N1CC[C@H](Oc2ccc(C(F)(F)F)cn2)C1 [Compound 1-158]", "log10(IC50)", 2.89],
  ["Cc1cccc(C(=O)c2ccc(N3CC[C@H](Oc4ncccc4Cl)C3)c(CO)c2)c1 [Compound 1-282]", "log10(IC50)", 1.79]
]}
